This collection of values is drawn from ChEMBL document CHEMBL1201862.

Listed here: items and their measured GI50.
- System: OVCAR-8
- TEST METHOD NOTES: NCI tumour cell line growth inhibition, 48 h
Active and inactive are the calls of the source. Cut-off read from the data, not from the text of the source: active = GI50 up to about 1.1 µM and inactive = higher.
MEASUREMENT NAME: GI50

- COc1ccc(C2NCCc3c2[nH]c2ccccc32)cc1 (stereo not given): > 100 µM (inactive)
- Cc1ccc(C2(c3ccc(C)cc3)SC(=C(C#N)C#N)c3ccccc32)cc1: > 100 µM (inactive)
- COc1c(O)ccc(C2=Cc3ccc(O)cc3OC2)c1OC: 18 µM (inactive)
- [N-]=[N+]=C(C(=O)CN1CCCC1=O)S(=O)(=O)c1ccccc1: > 100 µM (inactive)
- CCN(CC)C(=S)SNc1ccc(S(N)(=O)=O)cc1: 23.3 µM (inactive)
- CCN(CC)CCOC(=O)c1ccc(N)cc1.CCOC(=O)Nc1ccc(S(=O)(=O)OC)cc1.CCOC(=O)Nc1ccc(S(=O)(=O)OC)cc1.Nc1ccc(C(=O)O)c(O)c1: > 100 µM (inactive)
- CN1CCN(CCCBr)CC1: > 100 µM (inactive)
- Cc1cc(N(CCOS(C)(=O)=O)CCOS(C)(=O)=O)ccc1/C=N/c1ccc(-c2nc(Cc3ccccc3)sc2C)cc1: 7.53 µM (inactive)
- OC(c1cc(-c2ccccc2)nc2c1ccc1ccccc12)C1CCCCN1 (stereo not given): 1.96 µM (inactive)
- C[S+](C)CC(=O)c1ccc2c(c1)Sc1ccccc1O2: 3.39 µM (inactive)

---

- System: Malme-3M
- TEST METHOD NOTES: NCI tumour cell line growth inhibition, 48 h
Active and inactive are the calls of the source. No stated cut-off is given here; in the data, active = GI50 up to about 1.1 µM and inactive = higher.
Outcomes: TRUE for active, FALSE for inactive

- CCC1=C(C=O)c2cc3[nH]c(cc4nc(c5c6[nH]c(cc1n2)c(C)c6C(=O)C5C(=O)OC)C(CCC(=O)OC)C4C)c(C)c3CC (stereo not given): FALSE
- CC(/C=N/N=C(N)N)=N\N=C(N)N: FALSE
- CC(=O)NC(CCCN)C(=O)NCc1ccccc1 (stereo not given): FALSE
- CC(=O)Nc1cc(C(=O)Nc2cc(C(=O)N3CC(CCl)c4c3cc(N)c3ccccc43)nn2C)nn1C (stereo not given): TRUE
- CCOc1ccc(/N=N/c2c(-c3ccccc3)nn(C(=O)CC(=O)Nc3cccc(C)c3)c2-c2ccccc2)cc1: FALSE
- Brc1ccc(-c2[nH]c3ccccc3c2/C=N\Nc2ccc(-c3nc4ccccc4[nH]3)cc2)cc1: TRUE
- CC1CC2CCCC(=O)C2=C(O)O1 (stereo not given): FALSE
- CSCCC(NC(=O)Cc1ccc(C(=O)c2ccccc2)cc1)C(=O)N1CCN(CCCCN2c3ccccc3Sc3cc(N=[N+]=[N-])ccc32)CC1 (stereo not given): FALSE
- COc1cc([C@@H]2C3C(=O)c4ccccc4C3[C@@H](c3cc(OC)c(OC)c(OC)c3)C23Cc2ccccc2C3=O)cc(OC)c1OC (stereo not given in full): FALSE
- CC(C)CN(CC(C)C)C(=O)C1CCCC[C@@H]1C(=O)O (stereo not given in full): FALSE
- Cc1ccc(C)c(N2C(=O)C(=O)C(c3nc4ccccc4o3)C(=O)C2=O)c1: FALSE
- COC(=O)c1cc2c3ccccc3n(C(C)=O)c2cn1: FALSE
- Cc1c2ccccc2c(C)n2c1nc1cc(Cl)c(Cl)cc12: TRUE
- Cn1c2c(c3ccccc31)C1C(=O)N(c3ccccc3)C(=O)C1CC2 (stereo not given): FALSE
- CCOC(=O)NC(Nc1ccc(F)cc1F)(C(F)(F)F)C(F)(F)F: FALSE
- CO[C@@H]1C[C@H]2[C@@H]3CC[C@H]([C@@H](C)COC(C)=O)[C@@]3(C)CC[C@@H]2[C@@]2(C)CC[C@H]3C[C@]312: FALSE
- O=C(O)C(Br)C(Br)c1ccccc1[N+](=O)[O-] (stereo not given): FALSE
- Cc1ccc(C2(c3ccc(C)cc3)SC(=C(C#N)C#N)c3ccccc32)cc1: FALSE
- Cc1cccc(N2C(=O)C3ON(C(C(N)=O)c4ccccc4)C(c4c5ccccc5c(Cl)c5ccccc45)C3C2=O)c1C (stereo not given): FALSE
- Cc1nc(Cl)nc(Cl)c1C: FALSE

---

- Tested on: IGROV-1
- TEST METHOD NOTES: NCI tumour cell line growth inhibition, 48 h
Calls of active or inactive are those of the source. Cut-off read from the data, not from the text of the source: active = GI50 up to about 1.1 µM and inactive = higher.
MEASUREMENT NAME: GI50

- COc1cc2c(cc1OC)C(=O)/C(=C/c1ccc(O)cc1)CC2: > 10 µM (inactive)
- O=C(Nc1c(-c2nc3ccccc3[nH]2)sc(=S)n1-c1ccccc1)c1ccccc1: > 100 µM (inactive)
- Cc1[nH]c(-c2ccccc2)c(O)c1C(=O)OC12CC3CC(CC(C3)C1)C2: 14.1 µM (inactive)
- O=C(O)C1CCc2ccc3ccccc3c2C1c1cccc2ccccc12 (stereo not given): 22.9 µM (inactive)
- CC1(CO)C(=O)OC12CCCCC2 (stereo not given): > 100 µM (inactive)
- Clc1ccc2c(c1)[nH]c1c2nc2sccn21: > 100 µM (inactive)
- COc1nc(-c2c[nH]c3ccccc23)cnc1N: 19.6 µM (inactive)
- CC(=O)CC(=O)N1CCSC1=S: > 10 µM (inactive)
- O=C1/C(=C/c2ccncc2)C(n2cccc2)c2c(Br)sc(Br)c21 (stereo not given): 1.96 µM (inactive)
- Cc1ccc(Nc2nc3c(=O)n(C)c(=O)n(C)c3nc2Nc2ccc(C)cc2)cc1: 15 µM (inactive)
- CN(C)N1C(=O)CC2(CCN(CCCC(=O)c3ccc(F)cc3)CC2)C1=O: > 100 µM (inactive)
- Cc1c2c(cc3c1[nH]c1ccccc13)C(c1ccc(F)cc1)=NCC2: 0.855 µM (active)
- N#C/C(=C\Nc1ccccn1)C(=O)c1ccco1: > 100 µM (inactive)
- CC(C)C1CC[C@H](C)C[C@@H]1OC(=O)C(C(=O)O[C@H]1C[C@@H](C)CCC1C(C)C)C(O)[C@@H]1OC(C)(C)O[C@H]1C1COC(C)(C)O1 (stereo not given in full): 16.8 µM (inactive)
- C=C(C)C12OC3(c4ccccc4)OC1C1C4OC4(CO)C(O)C4(O)C(=O)C(C)=CC4C1(O3)C(C)C2OC(=O)/C=C/C=C/c1ccccc1 (stereo not given): 0.537 µM (active)
- CCc1c(O)c(O)c(C(C)=O)c2c(O)c(-c3c(C)cc4c(CC)c(O)c(O)c(C(C)=O)c4c3O)c(C)cc12: 5.52 µM (inactive)
- Cc1nnc(N)nc1/C=C\c1cccs1: 12 µM (inactive)
- CC(=O)OC1C(O)C(C)OC(OC2C(OC(=O)C3CCC4C(C3)OC3(CC(OC(=O)/C=C/c5ccccc5)C(C)CO3)C43CO3)OC(C)C(O)C2OC(C)=O)C1O (stereo not given): 0.0134 µM (active)
- CC(C)(C)OC(=O)NCCC1CN(C(=O)c2ccccc2)c2ccccc21 (stereo not given): 29.5 µM (inactive)
- N#CC(N)(C(=O)C(=O)NCCCNC(=O)C(=O)C(N)(C#N)c1ccc(Cl)cc1)c1ccc(Cl)cc1 (stereo not given): > 100 µM (inactive)

---

- Tested on: SF-295
- TEST METHOD NOTES: NCI tumour cell line growth inhibition, 48 h
The source made the active and inactive calls. Rule as the data show it: active = GI50 up to about 1.1 µM and inactive = higher.
MEASUREMENT NAME: GI50

* O=C(O)c1nn(-c2ccccc2-c2nnc(O)nc2O)c(=O)[nH]c1=O | > 100 µM (inactive)
* COc1ccc(-c2cc3ccccc3[nH]c2=O)cc1OC | > 100 µM (inactive)
* NS(=O)(=O)c1ccc(NC(=O)COC(=O)c2cccc3c(=O)c4ccccc4[nH]c23)cc1 | 23.9 µM (inactive)
* Cc1oc2c(c1C)S(=O)(=O)C(C#N)C(c1ccccc1)N2 (stereo unspecified) | 78.9 µM (inactive)
* CC(/C=N/N=C(N)N)=N\N=C(N)N | 92.3 µM (inactive)
* COc1ccc(/C=C2\CCS(=O)(=O)c3ccccc3C2=O)cc1OC | 43.6 µM (inactive)

---

- System: UO-31
- TEST METHOD NOTES: NCI tumour cell line growth inhibition, 48 h
Calls of active or inactive are those of the source. Rule as the data show it: active = GI50 up to about 1.1 µM and inactive = higher.
MEASUREMENT NAME: GI50

- CN(C)/C=N/[C@@H](C(=O)O)c1ccccc1: > 100 µM (inactive)
- Clc1ccc2c(c1)[nH]c1c2nc2sccn21: > 100 µM (inactive)
- O=C1Nc2ccccc2/C1=N/Nc1ncccc1[N+](=O)[O-]: 11.6 µM (inactive)
- C/N=C1\S/C(=N\c2ccc(N(C)C)cc2)N1C: 31.6 µM (inactive)
- CC(C)(C)OC(=O)C1CCC/C1=N/Nc1ccc([N+](=O)[O-])cc1[N+](=O)[O-] (stereo not given): 17.6 µM (inactive)
- COc1ccccc1NC(=O)CC(=O)n1nc(-c2ccccc2)c(/N=N/c2ccccc2[N+](=O)[O-])c1-c1ccccc1: 38.4 µM (inactive)
- O=S(=O)(O)c1ccc2c(/N=N/c3ccc(Cl)cc3)c(O)ccc2c1: > 100 µM (inactive)
- CCOC(=O)c1c(-c2ccc(Cl)cc2)c(C#N)c(=S)n(C2OC(COC(C)=O)C(OC(C)=O)C(OC(C)=O)C2OC(C)=O)c1-c1ccccc1 (stereo not given): > 100 µM (inactive)
- CC(=O)NNc1nc(-c2ccc([N+](=O)[O-])cc2)c(C#N)c(=O)n1C: 37.6 µM (inactive)
- O=C(c1ccccn1)C1(N2CCCCC2)CCCCC1: > 100 µM (inactive)
